Target: EcwtSC (Escherichia coli, UniProt P0A988)
Sequence (P0A988 whole entry): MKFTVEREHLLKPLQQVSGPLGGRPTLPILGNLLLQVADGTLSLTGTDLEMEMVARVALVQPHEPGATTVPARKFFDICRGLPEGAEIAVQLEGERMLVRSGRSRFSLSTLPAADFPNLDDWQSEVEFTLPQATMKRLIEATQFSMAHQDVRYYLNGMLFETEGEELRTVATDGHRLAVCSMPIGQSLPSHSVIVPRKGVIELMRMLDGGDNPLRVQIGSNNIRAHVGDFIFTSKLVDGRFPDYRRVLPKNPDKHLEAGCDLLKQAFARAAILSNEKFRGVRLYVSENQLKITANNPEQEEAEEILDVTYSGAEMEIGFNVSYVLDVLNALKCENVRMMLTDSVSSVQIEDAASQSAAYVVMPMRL
Assay: Isothermal Titration Calorimetry (ITC/kinITC), wild-type sliding clamp
Assay type: binding, E. coli
Details: buffer R1 (X 1), 295.15 K (22 °C)
Square brackets hold non-standard residues; d marks the D form. Peptide text beside a SMILES is read from it. * marks the point of attachment. Cha = N[C@@H](CC1CCCCC1)C(=O)O; Crotonyl(E) = C/C=C/C(=O)*; Dap = NC[C@H](N)C(=O)O; Acryloyl = C=CC(=O)*; ClAc = O=C(CCl)*; X1 = CC#CC(=O)*
Would you mind telling me the reported ΔH of each entry?

Query block: Lab note: need ΔH for C/C=C/C(=O)NC[C@H](NC(=O)[C@H](CC1CCCCC1)NC(=O)[C@H](CCC(N)=O)NC(C)=O)C(=O)N[C@@H](CC(C)C)C(=O)N[C@@H](Cc1ccccc1)C(=O)O [Peptide 3, Ac-Gln-Cha-Dap(but-2-enamide)-Leu-Phe-OH] (Ac-Q[Cha][Dap](Crotonyl(E))LF-OH) on EcwtSC (Escherichia coli, UniProt P0A988), anyone have it?
Result block: -11.7 (± 0.6) kcal/mol

Query block: Also, CC(=O)N[C@@H](CCC(N)=O)C(=O)N[C@@H](CC1CCCCC1)C(=O)N[C@@H](CNC(=O)CCl)C(=O)N[C@@H](CC(C)C)C(=O)N[C@@H](Cc1ccccc1)C(=O)O [Peptide 2] (Ac-Q[Cha][Dap](ClAc)LF-OH) please.
Result block: -8.9 (± 0.1) kcal/mol

Query block: Also, CC#CC(=O)NC[C@H](NC(=O)[C@H](CC1CCCCC1)NC(=O)[C@H](CCC(N)=O)NC(C)=O)C(=O)N[C@@H](CC(C)C)C(=O)N[C@@H](Cc1ccccc1)C(=O)O [Peptide 5, Ac-Gln-Cha-Dap(but-2-ynamide)-Leu-Phe-OH] (Ac-Q[Cha][Dap](X1)LF-OH) please.
Result block: -13.1 (± 1.2) kcal/mol

Query block: Also, C=CC(=O)NC[C@H](NC(=O)[C@H](CC1CCCCC1)NC(=O)[C@H](CCC(N)=O)NC(C)=O)C(=O)N[C@@H](CC(C)C)C(=O)N[C@@H](Cc1ccccc1)C(=O)O [Peptide 1, Ac-Gln-Cha-Dap(acrylamide)-Leu-Phe-OH] (Ac-Q[Cha][Dap](Acryloyl)LF-OH) please.
Result block: -11.4 (± 0.4) kcal/mol

---

Target: EcwtSC (Escherichia coli, UniProt P0A988)
Assay: Isothermal Titration Calorimetry (ITC/kinITC), wild-type sliding clamp
Assay type: binding, E. coli
Details: buffer R1 (X 1), 295.15 K (22 °C)
Square brackets hold non-standard residues; d marks the D form. Peptide text beside a SMILES is read from it. * marks the point of attachment. Cha = N[C@@H](CC1CCCCC1)C(=O)O; Crotonyl(E) = C/C=C/C(=O)*; Dap = NC[C@H](N)C(=O)O; Acryloyl = C=CC(=O)*; ClAc = O=C(CCl)*; X1 = CC#CC(=O)*
Would you mind telling me the reported -TΔS of each entry?

Query block: Look up -TΔS for this compound: C/C=C/C(=O)NC[C@H](NC(=O)[C@H](CC1CCCCC1)NC(=O)[C@H](CCC(N)=O)NC(C)=O)C(=O)N[C@@H](CC(C)C)C(=O)N[C@@H](Cc1ccccc1)C(=O)O [Peptide 3, Ac-Gln-Cha-Dap(but-2-enamide)-Leu-Phe-OH] (Ac-Q[Cha][Dap](Crotonyl(E))LF-OH)
Result block: 1.8 (± 0.4) kcal/mol

Query block: Also, CC#CC(=O)NC[C@H](NC(=O)[C@H](CC1CCCCC1)NC(=O)[C@H](CCC(N)=O)NC(C)=O)C(=O)N[C@@H](CC(C)C)C(=O)N[C@@H](Cc1ccccc1)C(=O)O [Peptide 5, Ac-Gln-Cha-Dap(but-2-ynamide)-Leu-Phe-OH] (Ac-Q[Cha][Dap](X1)LF-OH) please.
Result block: 2.7 (± 1.2) kcal/mol

Query block: Also, CC(=O)N[C@@H](CCC(N)=O)C(=O)N[C@@H](CC1CCCCC1)C(=O)N[C@@H](CNC(=O)CCl)C(=O)N[C@@H](CC(C)C)C(=O)N[C@@H](Cc1ccccc1)C(=O)O [Peptide 2] (Ac-Q[Cha][Dap](ClAc)LF-OH) please.
Result block: -0.3 (± 0.1) kcal/mol

Query block: Also, C=CC(=O)NC[C@H](NC(=O)[C@H](CC1CCCCC1)NC(=O)[C@H](CCC(N)=O)NC(C)=O)C(=O)N[C@@H](CC(C)C)C(=O)N[C@@H](Cc1ccccc1)C(=O)O [Peptide 1, Ac-Gln-Cha-Dap(acrylamide)-Leu-Phe-OH] (Ac-Q[Cha][Dap](Acryloyl)LF-OH) please.
Result block: 2.1 (± 0.2) kcal/mol

---

Would you mind telling me the reported ΔH of each entry?
Target: EcwtSC (Escherichia coli)
Assay: Isothermal Titration Calorimetry (ITC/kinITC), wild-type sliding clamp
Format: binding, E. coli
Details: buffer R1 (X 1), 310.15 K (37 °C)
Square brackets hold non-standard residues; d marks the D form. Peptide text beside a SMILES is read from it. * marks the point of attachment. Cha = N[C@@H](CC1CCCCC1)C(=O)O; Crotonyl(E) = C/C=C/C(=O)*; Dap = NC[C@H](N)C(=O)O; Acryloyl = C=CC(=O)*; ClAc = O=C(CCl)*; X1 = CC#CC(=O)*

Query block: Look up ΔH for this compound: C/C=C/C(=O)NC[C@H](NC(=O)[C@H](CC1CCCCC1)NC(=O)[C@H](CCC(N)=O)NC(C)=O)C(=O)N[C@@H](CC(C)C)C(=O)N[C@@H](Cc1ccccc1)C(=O)O [Peptide 3, Ac-Gln-Cha-Dap(but-2-enamide)-Leu-Phe-OH] (Ac-Q[Cha][Dap](Crotonyl(E))LF-OH)
Result block: -14.8 (± 0.8) kcal/mol

Query block: Also, C=CC(=O)NC[C@H](NC(=O)[C@H](CC1CCCCC1)NC(=O)[C@H](CCC(N)=O)NC(C)=O)C(=O)N[C@@H](CC(C)C)C(=O)N[C@@H](Cc1ccccc1)C(=O)O [Peptide 1, Ac-Gln-Cha-Dap(acrylamide)-Leu-Phe-OH] (Ac-Q[Cha][Dap](Acryloyl)LF-OH) please.
Result block: -13.9 (± 0.8) kcal/mol

Query block: Also, CC#CC(=O)NC[C@H](NC(=O)[C@H](CC1CCCCC1)NC(=O)[C@H](CCC(N)=O)NC(C)=O)C(=O)N[C@@H](CC(C)C)C(=O)N[C@@H](Cc1ccccc1)C(=O)O [Peptide 5, Ac-Gln-Cha-Dap(but-2-ynamide)-Leu-Phe-OH] (Ac-Q[Cha][Dap](X1)LF-OH) please.
Result block: -17.0 (± 0.4) kcal/mol

Query block: Also, CC(=O)N[C@@H](CCC(N)=O)C(=O)N[C@@H](CC1CCCCC1)C(=O)N[C@@H](CNC(=O)CCl)C(=O)N[C@@H](CC(C)C)C(=O)N[C@@H](Cc1ccccc1)C(=O)O [Peptide 2] (Ac-Q[Cha][Dap](ClAc)LF-OH) please.
Result block: -11.3 (± 0.8) kcal/mol

---

Target: EcwtSC (Escherichia coli)
Assay: Isothermal Titration Calorimetry (ITC/kinITC), wild-type sliding clamp
Assay type: binding, E. coli
Details: buffer R1 (X 1), 310.15 K (37 °C)
Square brackets hold non-standard residues; d marks the D form. Peptide text beside a SMILES is read from it. * marks the point of attachment. Cha = N[C@@H](CC1CCCCC1)C(=O)O; Crotonyl(E) = C/C=C/C(=O)*; Dap = NC[C@H](N)C(=O)O; Acryloyl = C=CC(=O)*; ClAc = O=C(CCl)*; X1 = CC#CC(=O)*
Would you mind telling me the reported ΔG of each entry?

Query block: Lab note: need ΔG for CC(=O)N[C@@H](CCC(N)=O)C(=O)N[C@@H](CC1CCCCC1)C(=O)N[C@@H](CNC(=O)CCl)C(=O)N[C@@H](CC(C)C)C(=O)N[C@@H](Cc1ccccc1)C(=O)O [Peptide 2] (Ac-Q[Cha][Dap](ClAc)LF-OH) on EcwtSC (Escherichia coli), anyone have it?
Result block: -9.03 (± 0.23) kcal/mol

Query block: Also, C/C=C/C(=O)NC[C@H](NC(=O)[C@H](CC1CCCCC1)NC(=O)[C@H](CCC(N)=O)NC(C)=O)C(=O)N[C@@H](CC(C)C)C(=O)N[C@@H](Cc1ccccc1)C(=O)O [Peptide 3, Ac-Gln-Cha-Dap(but-2-enamide)-Leu-Phe-OH] (Ac-Q[Cha][Dap](Crotonyl(E))LF-OH) please.
Result block: -9.1 (± 0.2) kcal/mol

Query block: Also, CC#CC(=O)NC[C@H](NC(=O)[C@H](CC1CCCCC1)NC(=O)[C@H](CCC(N)=O)NC(C)=O)C(=O)N[C@@H](CC(C)C)C(=O)N[C@@H](Cc1ccccc1)C(=O)O [Peptide 5, Ac-Gln-Cha-Dap(but-2-ynamide)-Leu-Phe-OH] (Ac-Q[Cha][Dap](X1)LF-OH) please.
Result block: -10.12 (± 0.03) kcal/mol

Query block: Also, C=CC(=O)NC[C@H](NC(=O)[C@H](CC1CCCCC1)NC(=O)[C@H](CCC(N)=O)NC(C)=O)C(=O)N[C@@H](CC(C)C)C(=O)N[C@@H](Cc1ccccc1)C(=O)O [Peptide 1, Ac-Gln-Cha-Dap(acrylamide)-Leu-Phe-OH] (Ac-Q[Cha][Dap](Acryloyl)LF-OH) please.
Result block: -9.04 (± 0.26) kcal/mol
